Origin of measurements: paper PMC9189845

# Tested on: MES-SA/Dx5 cells
# test-method-notes: PrestoBlue viability assay, MES-SA/Dx5 cells (MDR, P-gp positive)
# condition-set: Homo sapiens, MES-SA/Dx5, 72 h, read-out: IC50 / μM MES-SA/Dx5, absence of TQ; 72 h incubation
Each entry below lists one item and its recorded IC50 value.
API: value field is a number in µM; no unit string.

Check out these entries, answers already filled in.
CCN1CCN(C(c2ccccn2)c2cc(Cl)c3cccnc3c2O)CC1 (stereo not drawn)
24.4
CN1CCN(C(c2cccnc2)c2ccc3cccnc3c2O)CC1 (stereo not drawn)
35.9
Oc1c(C(c2cccnc2)N2CCCCC2)ccc2cccnc12 (stereo not drawn)
8.58
Oc1c(CN2CCCC2)cc(Br)c2cccnc12
0.41
Oc1c(C(c2cccs2)N2CCOCC2)cc(Cl)c2cccnc12 (stereo not drawn)
14
Oc1c(CN2CCCCC2)cc(Cl)c2cccnc12
0.29
COCc1cc(CN2CCC(C)CC2)c(O)c2ncccc12
0.58
COCc1cc(CN2CCCC2)c(O)c2ncccc12
1.37

So for Oc1ccc(CN2CCCC2)c2cccnc12 , the logged IC50 turned out to be 5.31

IC50 measured on Oc1c(C(c2ccncc2)N2CCCCC2)ccc2cccnc12 (stereo not drawn) = 14

Please fill in: IC50 reported for COCc1cc(CN2CCN(c3ccccc3)CC2)c(O)c2ncccc12 = 0.48

Kindly note the recorded IC50 for COCc1cc(CN2CCOCC2)c(O)c2ncccc12 , which is 5.64

compound CCN1CCN(C(c2cccnc2)c2cc(Cl)c3cccnc3c2O)CC1 (stereo not drawn) , IC50 observed: 23.1

----------
# test-method-notes: UV-visible spectrophotometric titrations (pKa)
# Format: physicochemical
# condition-set: water with 0.2% (v/v) DMSO, piperidinium / pyrrolidinium / morpholinium N, 25 °C, read-out: pKa (other; N+amH alkylamine nitrogen), experimentally determined
# Procedure: Spectrophotometrical determination of pKa values was performed as previously reported.[20],[50] An Agilent Cary 8454 diode array spectrophotometer was used to record the UV–visible spectra in the interval 200–800 nm. The path length was between 1 and 5 cm. […] Proton dissociation constants and the individual spectra of the species in the different protonation states were calculated with the computer program PSEQUAD.[62]
Assign 1 whenever pKa does not fall below 10; assign -1 whenever it does.

These recorded examples may help you get a feel for the data.
Oc1c(CN2CCCCC2)cc(Cl)c2cccnc12
1
CC(C)OCc1cc(CN2CCCCC2)c(O)c2ncccc12
1
Oc1c(CN2CCc3ccccc3C2)ccc2cccnc12
1
Oc1c(C(c2ccccn2)N2CCOCC2)cc(Cl)c2cccnc12 (stereo not drawn)
-1
Oc1c(CN2CCCCC2)cc(Br)c2cccnc12
1
Oc1c(C(c2ccccc2)N2CCCCC2)cc(Cl)c2cccnc12 (stereo not drawn)
1
Oc1c(CN2CCCc3ccccc32)ccc2cccnc12
-1

Attention now turns to another entry.
query: I'd appreciate it if you could say whether CCOCc1cc(CN2CCCC2)c(O)c2ncccc12 has pKa at least equal to 10.
result: 1

----------
# System: MES-SA/Dx5 cells
# test-method-notes: PrestoBlue viability assay, MES-SA/Dx5 cells (MDR, P-gp positive)
# condition-set: selectivity ratio MES-SA vs MES-SA/Dx5, without TQ
Lab note: cut-off is 2. Strictly less in SR is 1.0. Exactly 2 or more is 0.0.

Oc1ccc(CN2CCc3ccccc3C2)c2cccnc12 [Compound 50]
1.0
Oc1c(CN2CCCc3ccccc32)ccc2cccnc12 [Compound 79]
1.0
Cc1ccccc1N1CCN(Cc2ccc(O)c3ncccc23)CC1 [Compound 58]
1.0
Oc1c(CN2CCCCC2)ccc2cccnc12 [Compound 3]
0.0
COCc1cc(CN2CCN(C)CC2)c(O)c2ncccc12 [Compound 35]
0.0
CCN1CCN(C(c2ccccn2)c2cc(Cl)c3cccnc3c2O)CC1 (centres unmarked) [Compound 117]
1.0
CN1CCN(Cc2ccc3cccnc3c2O)CC1 [Compound 34]
1.0

Now for a further compound.
query: Below 2 on SR? Entry Oc1c(CN2CCCC2)ccc2cccnc12 [Compound 2]
result: 0.0
